# Tested on: Human immunodeficiency virus 1
# ASSAY NAME: Ratio of EC50 for HIV-1 M3 harboring protease L10I, K20R, M36I, G48V, I62V, A71V, V82A, I93L mutant to EC50 for wild type HIV-1 3B
# Format: functional
MEASURED METRIC: Ratio EC50

According to the records, this molecule CC(C)CN(C[C@@H](O)[C@H](Cc1ccccc1)NC(=O)O[C@H]1CO[C@H]2OC[C@H](OC(=O)NCc3ccccc3)[C@H]21)S(=O)(=O)c1ccc(N)cc1 displays Ratio EC50 of 0.9

The recorded Ratio EC50 for CNc1nc2ccc(S(=O)(=O)N(CC(C)C)C[C@@H](O)[C@H](Cc3ccccc3)NC(=O)O[C@H]3CO[C@H]4OC[C@H](OCC(=O)NCc5ccccc5)[C@H]43)cc2o1 is 0.3

// CNc1nc2ccc(S(=O)(=O)N(CC(C)C)C[C@@H](O)[C@H](Cc3ccccc3)NC(=O)O[C@H]3CO[C@H]4OC[C@H](NC(=O)OCc5ccccc5)[C@H]43)cc2o1 : Ratio EC50 value = 0.3

In plain terms, CC(C)CN(C[C@@H](O)[C@H](Cc1ccccc1)NC(=O)O[C@H]1CO[C@H]2OC[C@H](OCC(=O)NCc3ccccc3)[C@H]21)S(=O)(=O)c1ccc(N)cc1 has a documented Ratio EC50 of 0.6

Short answer for CNc1nc2ccc(S(=O)(=O)N(CC(C)C)C[C@@H](O)[C@H](Cc3ccccc3)NC(=O)O[C@H]3CO[C@H]4OC[C@H](OC(=O)NCc5ccccc5)[C@H]43)cc2o1 : Ratio EC50 was 0.7

---

# System: Human immunodeficiency virus 1
# ASSAY NAME: Ratio of EC50 for HIV-1 M3 harboring protease L10I, K20R, M36I, G48V, I62V, A71V, V82A, I93L mutant to EC50 for wild type HIV-1 3B
# Format: functional
MEASURED METRIC: Ratio EC50
Please respond with just the number, no unit label.

Case COc1ccc(S(=O)(=O)N(CC(C)C)C[C@@H](O)[C@H](Cc2ccccc2)NC(=O)O[C@H]2CO[C@H]3OC[C@H](O)[C@H]32)cc1 , Human immunodeficiency virus 1, Ratio EC50 recorded as 0.2

Case CC(C)CN(C[C@@H](O)[C@H](Cc1ccccc1)NC(=O)O[C@H]1CO[C@H]2OC[C@H](NC(=O)OCc3ccccc3)[C@H]21)S(=O)(=O)c1ccc(N)cc1 , Human immunodeficiency virus 1, Ratio EC50 recorded as 0.4

Value sought: Ratio EC50, system Human immunodeficiency virus 1, item C=C(F)CO[C@H]1CO[C@@H]2OC[C@H](OC(=O)N[C@@H](Cc3ccccc3)[C@H](O)CN(CC(C)C)S(=O)(=O)c3ccc4nc(NC)oc4c3)[C@@H]21 . Result: 1.4

---

# System: Human immunodeficiency virus 1
# ASSAY NAME: Antiviral activity against wild type HIV-1 3B infected in human MT4 cells assessed as inhibition of viral replication after 3 days by GFP reporter gene assay
# Type: functional, organism-based
# EXPERIMENTAL CONTEXT: Human immunodeficiency virus 1, 3B, MT4, 72 h
MEASURED METRIC: EC50
Don't forget the unit after the number, please.

What the record says about CNc1nc2ccc(S(=O)(=O)N(CC(C)C)C[C@@H](O)[C@H](Cc3ccccc3)NC(=O)O[C@H]3CO[C@H]4OC[C@H](OCC(=O)NCc5ccccc5)[C@H]43)cc2o1 : EC50 is 25 nM

Measured EC50 of CNc1nc2ccc(S(=O)(=O)N(CC(C)C)C[C@@H](O)[C@H](Cc3ccccc3)NC(=O)O[C@H]3CO[C@H]4OC[C@H](F)[C@H]43)cc2o1 : 0.7 nM

Documented EC50 of CNC(=O)CO[C@H]1CO[C@@H]2OC[C@H](OC(=O)N[C@@H](Cc3ccccc3)[C@H](O)CN(CC(C)C)S(=O)(=O)c3ccc4nc(NC)oc4c3)[C@@H]21 : 460 nM

Query CNc1nc2ccc(S(=O)(=O)N(CC(C)C)C[C@@H](O)[C@H](Cc3ccccc3)NC(=O)O[C@H]3CO[C@H]4OC[C@H](NC(=O)OCc5ccccc5)[C@H]43)cc2o1 yields EC50 of 3.8 nM

For reference, reported EC50 for CNc1nc2ccc(S(=O)(=O)N(CC(C)C)C[C@@H](O)[C@H](Cc3ccccc3)NC(=O)O[C@H]3CO[C@H]4OC[C@H](Cl)[C@H]43)cc2o1 stands at 0.5 nM

Per the record, COc1ccc(S(=O)(=O)N(CC(C)C)C[C@@H](O)[C@H](Cc2ccccc2)NC(=O)O[C@H]2CO[C@H]3OC[C@H](O)[C@H]32)cc1 has EC50 of 6.5 nM

Given item CNc1nc2ccc(S(=O)(=O)N(CC(C)C)C[C@@H](O)[C@H](Cc3ccccc3)NC(=O)O[C@H]3CO[C@H]4OC[C@H](OCC(=O)N(C)C)[C@H]43)cc2o1 , the value recorded as its EC50 is 249 nM

Entry CC(C)CN(C[C@@H](O)[C@H](Cc1ccccc1)NC(=O)O[C@H]1CO[C@H]2OC[C@H](OCC(=O)NCc3ccccc3)[C@H]21)S(=O)(=O)c1ccc(N)cc1 — recorded EC50 = 16 nM

// EC50 value for CC(C)CN(C[C@@H](O)[C@H](Cc1ccccc1)NC(=O)O[C@H]1CO[C@H]2OC[C@H](NC(=O)OCc3ccccc3)[C@H]21)S(=O)(=O)c1ccc(N)cc1 : 5 nM

Just so you know, measured EC50 for CNc1nc2ccc(S(=O)(=O)N(CC(C)C)C[C@@H](O)[C@H](Cc3ccccc3)NC(=O)O[C@H]3CO[C@H]4OC[C@H](OC(=O)NCc5ccccc5)[C@H]43)cc2o1 came out at 5.8 nM

According to the records, this compound COc1ccc(S(=O)(=O)N(CC(C)C)C[C@@H](O)[C@H](Cc2ccccc2)NC(=O)O[C@H]2CO[C@H]3OC[C@H](OCC(=O)NCc4ccccc4)[C@H]32)cc1 displays EC50 of 0.6 nM

---

Please respond with reported pEC50 for every item in the list.
# Tested on: Human immunodeficiency virus 1
# ASSAY NAME: Antiviral activity against wild type HIV-1 3B infected in human MT4 cells assessed as inhibition of viral replication after 3 days by GFP reporter gene assay
# Format: functional, organism-based
# EXPERIMENTAL CONTEXT: Human immunodeficiency virus 1, 3B, MT4, 72 h
Note on units: pEC50 is unitless, being -log10 of a concentration expressed in mol/L.

Item: CC(C)CN(C[C@@H](O)[C@H](Cc1ccccc1)NC(=O)O[C@H]1CO[C@H]2OC[C@H](OC(=O)NCc3ccccc3)[C@H]21)S(=O)(=O)c1ccc(N)cc1 | pEC50: 8.24

The compound listed as C=C(F)CO[C@H]1CO[C@@H]2OC[C@H](OC(=O)N[C@@H](Cc3ccccc3)[C@H](O)CN(CC(C)C)S(=O)(=O)c3ccc4nc(NC)oc4c3)[C@@H]21 has a reported pEC50 of 9.40

Value of measured pEC50 for the entry CC(C)CN(C[C@@H](O)[C@H](Cc1ccccc1)NC(=O)O[C@H]1CO[C@H]2OC[C@H](Cl)[C@H]21)S(=O)(=O)c1ccc(N)cc1 : 9.40

Measured pEC50 of COc1ccc(S(=O)(=O)N(CC(C)C)C[C@@H](O)[C@H](Cc2ccccc2)NC(=O)O[C@H]2CO[C@H]3OC[C@H](OCC(=O)N(C)C)[C@H]32)cc1 : 8.42

Reported pEC50 for CNc1nc2ccc(S(=O)(=O)N(CC(C)C)C[C@@H](O)[C@H](Cc3ccccc3)NC(=O)O[C@H]3CO[C@H]4OC[C@H](OCCC(F)(F)F)[C@H]43)cc2o1 was 9.30

In plain terms, CNC(=O)CO[C@H]1CO[C@@H]2OC[C@H](OC(=O)N[C@@H](Cc3ccccc3)[C@H](O)CN(CC(C)C)S(=O)(=O)c3ccc(OC)cc3)[C@@H]21 has a documented pEC50 of 8.16

---

# Test system: Human immunodeficiency virus 1
# ASSAY NAME: Ratio of EC50 for HIV-1 M3 harboring protease L10I, K20R, M36I, G48V, I62V, A71V, V82A, I93L mutant to EC50 for wild type HIV-1 3B
# Type: functional
MEASURED METRIC: Ratio EC50

For reference, reported Ratio EC50 for CNc1nc2ccc(S(=O)(=O)N(CC(C)C)C[C@@H](O)[C@H](Cc3ccccc3)NC(=O)O[C@H]3CO[C@H]4OC[C@H](OCCC(F)(F)F)[C@H]43)cc2o1 stands at 1.6

Entry CNC(=O)CO[C@H]1CO[C@@H]2OC[C@H](OC(=O)N[C@@H](Cc3ccccc3)[C@H](O)CN(CC(C)C)S(=O)(=O)c3ccc(OC)cc3)[C@@H]21 ; Ratio EC50 = 1.2

Ratio EC50 reading for COc1ccc(S(=O)(=O)N(CC(C)C)C[C@@H](O)[C@H](Cc2ccccc2)NC(=O)O[C@H]2CO[C@H]3OC[C@H](OCC(=O)N(C)C)[C@H]32)cc1 : 0.8
